What pIC50 was measured for each of the following?
target: PI3K alfa (Homo sapiens, UniProt P42336); construct: His tag (C); made in house; host or cells: baculovirus BV1075; Tn5 (Trichoplusia ni) or TiniPro insect cells; test: PI3K alpha kinase assay (Kinase-Glo luminescence); type: biochemical; conditions: read-out: EPK_PI3Kalfa/IC50
Sequence (P42336 with tags, fused parts or gaps limits assumed): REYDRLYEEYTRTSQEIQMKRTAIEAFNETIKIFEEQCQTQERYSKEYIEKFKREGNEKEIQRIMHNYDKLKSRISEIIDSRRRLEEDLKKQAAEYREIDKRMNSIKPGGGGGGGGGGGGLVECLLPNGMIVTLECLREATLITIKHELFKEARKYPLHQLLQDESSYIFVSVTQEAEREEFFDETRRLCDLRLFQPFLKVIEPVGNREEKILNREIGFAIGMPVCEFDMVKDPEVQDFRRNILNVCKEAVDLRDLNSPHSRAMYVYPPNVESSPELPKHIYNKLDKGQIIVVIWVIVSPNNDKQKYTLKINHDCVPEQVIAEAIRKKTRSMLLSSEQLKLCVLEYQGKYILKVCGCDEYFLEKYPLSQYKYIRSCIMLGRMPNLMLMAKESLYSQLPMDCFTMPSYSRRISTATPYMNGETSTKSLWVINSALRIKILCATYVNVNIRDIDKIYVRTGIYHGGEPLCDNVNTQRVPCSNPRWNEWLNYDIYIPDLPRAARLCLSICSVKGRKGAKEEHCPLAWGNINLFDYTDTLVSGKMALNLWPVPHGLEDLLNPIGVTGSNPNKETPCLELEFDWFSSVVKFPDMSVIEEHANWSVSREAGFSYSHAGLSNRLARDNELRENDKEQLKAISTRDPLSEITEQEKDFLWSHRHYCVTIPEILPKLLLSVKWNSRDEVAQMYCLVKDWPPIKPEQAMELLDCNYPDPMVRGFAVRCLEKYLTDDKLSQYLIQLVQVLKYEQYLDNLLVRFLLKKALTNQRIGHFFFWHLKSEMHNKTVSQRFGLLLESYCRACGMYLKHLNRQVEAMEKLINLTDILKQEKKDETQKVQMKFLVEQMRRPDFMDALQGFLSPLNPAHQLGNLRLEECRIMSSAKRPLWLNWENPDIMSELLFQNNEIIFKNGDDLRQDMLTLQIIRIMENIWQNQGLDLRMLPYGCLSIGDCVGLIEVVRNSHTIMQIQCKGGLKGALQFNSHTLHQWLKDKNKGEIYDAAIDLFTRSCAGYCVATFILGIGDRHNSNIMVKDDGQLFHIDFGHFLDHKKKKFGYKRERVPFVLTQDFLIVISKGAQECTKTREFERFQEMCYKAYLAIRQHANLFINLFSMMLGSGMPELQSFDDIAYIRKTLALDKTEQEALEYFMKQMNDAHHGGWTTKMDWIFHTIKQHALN
One number for each entry, as −log10 of the molar value.

>  <compoundSmiles>
Cc1nc(C(C)(C)O)ccc1-n1c(=O)n(C)c2cnc3ccc(-c4cncc(C5(C#N)CCC5)c4)cc3c21

>  <metric>
pIC50

>  <readoutNumber>
7.51

$$$$

Items follow; give pIC50 for each.
1. CNc1cc(-c2ccc3ncc4c(c3c2)n(-c2ccc(N(C)C)nc2C)c(=O)n4C)cnc1C
2. Cc1ccc(-n2c(=O)n(C)c3cnc4ccc(-c5cnc(N(C)C)nc5)cc4c32)c(C)n1
3. CCOc1ccc(-c2ccc3ncc4c(c3c2)n(-c2ccc(OCCOC)nc2C)c(=O)n4C)cn1

-- reply
[7.85, 6.85, 6.80]
